Reported viability, T/C is given for each of the following compounds.
system: 616215-338-R-J1-PDC complex spheroid growth, % test/control; assay: Anticancer human tumor 616215-338-R-J1-PDC patient-derived colon adenocarcinoma cell line growth inhibition [Asc]; conditions: second compound 3 µM; first compound 0.0316 µM; stronger effect = lower value;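 also: spheroids exposed to agents for seven days before readout; 100% = DMSO vehicle control viability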
Unit % implied. Number only.

Below, each entry is followed by its recorded viability, T/C result.
NC1CCC(NC2CC2c2ccccc2)CC1 (stereo not given) + CCN1C(C(=O)NC23CCC(C(=O)O)(CC2)CC3)C(c2cccc(Cl)c2F)C2(C(=O)Nc3cc(Cl)ccc32)C12CCCCC2	51
C#Cc1c(F)ccc2cc(O)cc(-c3ncc4c(N5CC6CCC(C5)N6)nc(OCC56CCCN5CC(F)C6)nc4c3F)c12 (stereo not given) + CCN1C(C(=O)NC23CCC(C(=O)O)(CC2)CC3)C(c2cccc(Cl)c2F)C2(C(=O)Nc3cc(Cl)ccc32)C12CCCCC2	36.6
Cn1ncnc1[C@H]1c2n[nH]c(=O)c3cc(F)cc(c23)N[C@@H]1c1ccc(F)cc1 + CCN1C(C(=O)NC23CCC(C(=O)O)(CC2)CC3)C(c2cccc(Cl)c2F)C2(C(=O)Nc3cc(Cl)ccc32)C12CCCCC2	47.5
C=C(F)C(=O)N1CCN(c2nc(OCC3CCCN3C)nc3c2CCN(c2cccc4cccc(Cl)c24)C3)CC1CC#N (stereo not given) + CCN1C(C(=O)NC23CCC(C(=O)O)(CC2)CC3)C(c2cccc(Cl)c2F)C2(C(=O)Nc3cc(Cl)ccc32)C12CCCCC2	48.9
COc1c(OCCCN2CCOCC2)ccc2c3n(c(=NC(=O)c4cnc(N)nc4)nc12)CCN3 + CCN1C(C(=O)NC23CCC(C(=O)O)(CC2)CC3)C(c2cccc(Cl)c2F)C2(C(=O)Nc3cc(Cl)ccc32)C12CCCCC2	27.4
O=C(c1cc(Cc2n[nH]c(=O)c3ccccc23)ccc1F)N1CCN(C(=O)C2CC2)CC1 + CCN1C(C(=O)NC23CCC(C(=O)O)(CC2)CC3)C(c2cccc(Cl)c2F)C2(C(=O)Nc3cc(Cl)ccc32)C12CCCCC2	61.4

Note to self: viability, T/C recorded for CNC(C)C(=O)NC1CN(S(=O)(=O)c2cccc(S(=O)(=O)N3CCC4CCC(C(=O)NC(c5ccccc5)c5ccccc5)N4C(=O)C(NC(=O)C(C)NC)C3)c2)CCC2CCC(C(=O)NC(c3ccccc3)c3ccccc3)N2C1=O (stereo not given) + CCN1C(C(=O)NC23CCC(C(=O)O)(CC2)CC3)C(c2cccc(Cl)c2F)C2(C(=O)Nc3cc(Cl)ccc32)C12CCCCC2 was 51.6

Form field viability, T/C, entry CCN1CCN(Cc2ccc(Nc3ncc(F)c(-c4cc(F)c5nc(C)n(C(C)C)c5c4)n3)nc2)CC1 + CCN1C(C(=O)NC23CCC(C(=O)O)(CC2)CC3)C(c2cccc(Cl)c2F)C2(C(=O)Nc3cc(Cl)ccc32)C12CCCCC2 : 48.3

Data point: C=CC(=O)N1CCN(c2nc(=O)n(-c3c(C)ccnc3C(C)C)c3nc(-c4c(O)cccc4F)c(F)cc23)C(C)C1 (stereo not given) + CCN1C(C(=O)NC23CCC(C(=O)O)(CC2)CC3)C(c2cccc(Cl)c2F)C2(C(=O)Nc3cc(Cl)ccc32)C12CCCCC2 ; viability, T/C = 48.2

In plain terms, O=C(c1ccc(F)c(F)c1Nc1ccc(I)cc1F)N1CC(O)([C@@H]2CCCCN2)C1 + CCN1C(C(=O)NC23CCC(C(=O)O)(CC2)CC3)C(c2cccc(Cl)c2F)C2(C(=O)Nc3cc(Cl)ccc32)C12CCCCC2 has a documented viability, T/C of 3.79

Taken from PubChem BioAssay AID1963448.
